Assay: Compound toxicity, ATPLite total ATP levels
Type: cell-based
Settings: human, HepAD38 cells; three days after compound addition; concentration reducing total ATP levels by 50% relative to no drug controls; class symbols
Metric: CC50 at 3 days

O=C(Nc1cc(F)c(F)c(F)c1)c1ccc(Cl)c(S(=O)(=O)[C@H]2C3CCC2C[C@](O)(CO)C3)c1 : > 25 µM
[N-]=[N+]=N[C@]1(CO)CC2CC[C@@H](C1)[C@H]2S(=O)(=O)c1cc(C(=O)Nc2cc(F)c(F)c(F)c2)ccc1Cl : > 25 µM
CN(C)C[C@]1(O)CC2CC[C@@H](C1)[C@H]2S(=O)(=O)c1cc(C(=O)Nc2cc(F)c(F)c(F)c2)ccc1Cl : < 10 µM

For O=C(Nc1cc(F)c(F)c(F)c1)c1ccc(Cl)c(S(=O)(=O)[C@H]2C3CC[C@H]2C[C@](O)(c2ncc(-c4ccccc4)[nH]2)C3)c1 , write its CC50 at 3 days. < 10 µM

For CC(=O)NC[C@@]1(O)CC2CC[C@@H](C1)[C@H]2S(=O)(=O)c1cc(C(=O)Nc2cc(F)c(F)c(F)c2)ccc1Cl , write its CC50 at 3 days. > 25 µM

For O=C1NC[C@]2(O1)C1CCC2C[C@H](S(=O)(=O)c2cc(C(=O)Nc3cc(F)c(F)c(F)c3)ccc2Cl)C1 , write its CC50 at 3 days. > 25 µM

For C[C@]1(S(=O)(=O)c2cc(C(=O)Nc3cc(F)c(F)c(F)c3)ccc2Cl)CC[C@H](O)CC1 , write its CC50 at 3 days. > 25 µM

For CS(=O)(=O)N[C@@H]1C2CC[C@H]1C[C@H](S(=O)(=O)c1cc(C(=O)Nc3cc(F)c(F)c(F)c3)ccc1Cl)C2 , write its CC50 at 3 days. > 25 µM
